Exercise: state measured polymerase ribozyme fitness (log ratio) for each of the variants provided.
B1: TPR 5TU (parent)
chain: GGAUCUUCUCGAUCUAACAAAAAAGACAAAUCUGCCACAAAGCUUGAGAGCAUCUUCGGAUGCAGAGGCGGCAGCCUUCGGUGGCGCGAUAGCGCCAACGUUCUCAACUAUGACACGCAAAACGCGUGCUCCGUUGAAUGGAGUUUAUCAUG

variants of: B1; assay: polymerase ribozyme fitness, log enrichment relative to wild type (log ratio); higher = more active; in vitro selection for triplet polymerase activity
Variants at the floor of the assay were thinned out.
Respond with the number and no other words.

Prompt: Specify reported polymerase ribozyme fitness (log ratio) for the variant shown: U56A U90C U144G
Response: -3.91

Prompt: Specify reported polymerase ribozyme fitness (log ratio) for the variant shown: A73G U104C
Response: -0.284

Prompt: Specify reported polymerase ribozyme fitness (log ratio) for the variant shown: A21C A60G
Response: 0.714

Prompt: Specify reported polymerase ribozyme fitness (log ratio) for the variant shown: C96U C116U G140C U144G
Response: -4.04

Prompt: Specify reported polymerase ribozyme fitness (log ratio) for the variant shown: G50C C54U
Response: -2.6

Prompt: Specify reported polymerase ribozyme fitness (log ratio) for the variant shown: A52U G80A
Response: -3.35

Prompt: Specify reported polymerase ribozyme fitness (log ratio) for the variant shown: C85G A142C
Response: -2.98
